# System: K4 kissing-loop RNA reporter;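 note: bound reporter read as fluorescence of individual clusters on recovered sequencing chips by microscopy, with normalized cluster intensities fitted with a binding model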
# testDescription: apparent KD of K4 kissing-loop reporter; higher = weaker reporter binding
# assaySetup: Eterna round: R107; input ligand: FMN 200 uM
measurementKind: apparent KD of K4 kissing-loop reporter

chain="UGAGAUAUGAGGGAUACCAGCCAUAAGGAAAGUGUGAUGAGUGAUGUUCUGACAAGCCAAGGCCCUUGGCAGCUUUAAUAGCAUC [whbob_SS_Theo_B_th77]" measurementkind="apparent KD of K4 kissing-loop reporter" reading="328 nM"
chain="UUAAUAAUUCAAGGAUAUGUUUUCUAUUUCGAGUGAUGUUCGGAAUUAAUAAAUUUAAAAGAUUAUACAGAAGGUGAUAAAUAGU [Cynwulf-mod#2]" measurementkind="apparent KD of K4 kissing-loop reporter" reading="87.1 nM"
chain="GGAUAGGACAGAGGAUAUGGUAGCUAGGCAAGACAAAAGUCUUGUCUAGCAAUGAGGAGUGAUGUUCCAGAAGGCUGUCCUAUCG [FmnBX 4 - #SwitchBubble #StaticStem]" measurementkind="apparent KD of K4 kissing-loop reporter" reading="753 nM"
chain="AUUAAUUUCAGAGGAUAUCGUAAUUUUAUUUUAUUUUUUCAUUUAUGCAGUGAUGUUGCAUUUAUUCGAGAAGGCUGAUUUAUAA [JR_SSFMNB_Sub021]" measurementkind="apparent KD of K4 kissing-loop reporter" reading="65.7 nM"

###

# Test system: MS2 coat protein
# testDescription: apparent KD of MS2 coat protein; designed switch direction (-1 OFF switch, 1 ON switch): -1; higher = weaker reporter binding
# assaySetup: Eterna round: R95; input ligand: microRNA oligo, concentration not stated
Returns Met if the recorded apparent KD of MS2 coat protein is greater than or equal to 30 nM, and Not met otherwise.

chain="GGUGAGCGAGGAUAUACAUGAGGAUCACCCAUGUGAGAGAAAUAAGUGAGGAAGAAAAGUAGAAGGCGCGAACG [Mat - Exclusion 3 - Mod of Salish D46] (puzzle: Exclusion 3)" group="Not met"
chain="CAUAUAGUAGUGAGGAUAUGCGAAUAUAUAAUUAAGUAGAAGGCACAUGAGGAUCACCCAUGUAUAUUGUAAAG [EX-4 Malc] (puzzle: Brourd's mod of Exclusion 4)" group="Not met"
chain="AAGGUGUUAGGAUAUCGUAGUUUGUGGCAGACGGGAUUUUGCGAGAAGGAACAUGAGGAUCACCCAUGUCGGAU [JR_Exclu4_Sub041] (puzzle: Exclusion 4)" group="Not met"
chain="AGUCCACAUGAGGAUCACCCAUGUCAGGAUAUACGCAAUACAAAAGAACCCAUCAAAAGUAGAAGGGACAGGGA [Getequ] (puzzle: Exclusion 1)" group="Not met"
chain="GUGCAGGUAGGAUAUCCACCGGCAAACAUGAGGAUCACCCAUGUGACGCUCCCUUGUCUUGGAGAAGGGCCGGCAU [Xetemaaren] (puzzle: Exclusion 5)" group="Not met"
chain="UCAUACGGUGAGGAUAUCUCCGCUAAAGUGUGUAGAGAAGGCGCUACAUGAGGAUCACCCAUGUUUGUGGGCAG [Ex-6 Malc#11] (puzzle: Exclusion 6)" group=Met

###

Items are presented alongside their recorded apparent KD of MS2 coat protein.
# System: MS2 coat protein
# testDescription: apparent KD of MS2 coat protein, switch ON state; designed switch direction (-1 OFF switch, 1 ON switch): -1; higher = weaker reporter binding
# assaySetup: FMN input: 0 or 200 uM; Eterna round: R93 (includes R88 designs)
measurementKind: apparent KD of MS2 coat protein

chain="GAAGAACAUGAGGAUCACCCAUGUCAGGAUAUACAGAAGGGAAUAAUAUAACCUGAAAGUAGAAGGGACAAGAA [Ex 1 May 43]" reading="33.9 nM"
chain="GCUUGGGUAGGAUAUACAUGAGGAUCACCCAUGUGAGAGAAAAAAGUGAGAAAGAAAAGUAGAAGGACCUGAGG [salish99-ex3-107]" reading="123 nM"
chain="AGAAAGUGAGGAUAUACAGAUAAAAAAACGAAAAAAAAUCUGUAGAAGGCACAUGAGGAUCACCCAUGUAAAGA [Mat - Exclusion 4 - Mayanna - D108]" reading="37.9 nM"
chain="AAAAUGUCAGGAUAUCUGGAUAGGAAAAAGAAAACCUAUCCAGAGAAGGGACAUGAGGAUCACCCAUGUAAAAA [JL cataway mod 3]" reading="92.9 nM"
chain="GAAAAACAUGAGGAUCACCCAUGUAAGGAUAUGCUAAAAAACGCAAAAAAAGCGAAUAGCAGAAGGUACAAAAA [Mat - Exclusion 1 - Eli mod - D83]" reading="20.6 nM"
chain="CCUGGCUUAGGAUAUACAGGAACCGGGAACCCGGAAGUGAAACAUGAGGAUCACCCAUGUAGAAGGAAGAAAGC [Leusanzaus]" reading="23.9 nM"
chain="ACUAAACGAGGAUAUACUAACGAACCUCAAACAUAGAUAAGACAUGAGGAUCACCCAUGUAGAAGGCGUAGACU [JR_Exc002_Sub008]" reading="74.6 nM"
